Consider the following compounds and their measured melting point readings.

COMPOUND: COCc1cc(CNS(C)(=O)=O)ccc1-c1coc2c(C(C)(C)C)cc(-c3ccc[nH]c3=O)cc12 [Compound I-97]
melting point: 128 to 130 °C
//
COMPOUND: CC(C)(C)c1cc(-c2ccc[nH]c2=O)cc2c(C(=O)N3CCC3)coc12 [Compound I-94]
melting point: > 300 °C
//
COMPOUND: CC(C)(C)c1cc(-c2ccc[nH]c2=O)cc2c(-c3ccccc3)coc12 [Compound I-24]
melting point: 257 to 258 °C
//
COMPOUND: CC(C)(C)c1cc(-c2ccc[nH]c2=O)cc2c(C(=O)N3CCC(CN)C3)coc12 (centres unmarked) [Compound I-49]
melting point: > 300 °C
//
COMPOUND: CC(C)(C)c1cc(-c2ccc[nH]c2=O)cc2c(C(=O)c3ccccc3)coc12 [Compound I-20]
melting point: 271 to 272 °C
//
COMPOUND: CC(C)(C)c1cc(-c2ccc[nH]c2=O)cc2c(C(=O)N3CC(O)C3)coc12 [Compound I-102]
melting point: 264 to 266 °C

In: Output melting point of CC(C)(C)c1cc(-c2ncc[nH]c2=O)cc2c(C(=O)N3CCCC(CNS(C)(=O)=O)C3)coc12 (centres unmarked) [Compound 102]
Out: 172 to 174 °C

In: Output melting point of CC(=O)Nc1ccc(-c2coc3c(C(C)(C)C)cc(-c4ccc[nH]c4=O)cc23)cc1 [Compound I-80]
Out: > 300 °C

----------
# ASSAY TARGET: HCV polymerase (NS5B570n-Con1) (Hepatitis C virus genotype 1b, UniProt Q9WMX2)
# Construct: a 21 amino acid C-terminal deletion of full-length HCV polymerase
# EXPERIMENT SUMMARY: biochemical
pIC50: −log10 of the molar value.
Binary classification by pIC50, with 7 as an inclusive lower bound for fulfilled; all other cases are not fulfilled.

MOLECULE: CC(C)(C)c1cc(-c2ccc[nH]c2=O)cc2c(C(=O)Nc3cccc(NS(C)(=O)=O)c3)coc12
CLASSIFICATION: not fulfilled

In: Reported pIC50 at or above 7? CC(C)(C)c1cc(-c2ccc[nH]c2=O)cc2c(-c3cccc(CN)c3)coc12
Out: not fulfilled

In: Reported pIC50 at or above 7? CC(C)(C)c1cc(-c2ccc[nH]c2=O)cc2c(C(=O)N3CCC(NS(C)(=O)=O)CC3)coc12
Out: not fulfilled

In: Reported pIC50 at or above 7? CC(C)(C)c1cc(-c2ccc[nH]c2=O)cc2c(C(=O)c3ccccc3)coc12
Out: fulfilled

In: Reported pIC50 at or above 7? CC(C)(C)c1cc(-c2ccc[nH]c2=O)cc2c(C(=O)N3CCC[C@@H]3CNS(C)(=O)=O)csc12
Out: fulfilled

In: Reported pIC50 at or above 7? CC(C)(C)c1cc(-c2ccc[nH]c2=O)cc2c(C(=O)N3CCOC(CO)C3)coc12 (stereo not shown)
Out: not fulfilled

In: Reported pIC50 at or above 7? CC1(C)CCCN(C(=O)c2coc3c(C(C)(C)C)cc(-c4ccc[nH]c4=O)cc23)C1
Out: not fulfilled

----------
# Test system: HCV replicon cells (2209-23), genotype 1b replicon in human hepatoma Huh7 cells
# EXPERIMENT SUMMARY: HCV replicon assay (Renilla luciferase reporter)
# Type: cell-based, HCV genotype 1b
# MEASUREMENT SETUP: Hepatitis C virus, Huh-7, 72 h; 2209-23 cells, three days incubation
MEASURED ENDPOINT: IC50 (nM)
Record the value in nM, omitting the unit from your answer.

Check out these entries, answers already filled in.
COMPOUND: CC(C)(C)c1cc(-c2ccc[nH]c2=O)cc2c(C(=O)N3CCC[C@H](CNS(C)(=O)=O)C3)coc12 [Compound I-100]
IC50 / nM: 14
//
COMPOUND: CC(C)(C)c1cc(-c2ccc[nH]c2=O)cc2c(-c3ccc(N)cc3)coc12 [Compound I-86]
IC50 / nM: 346

Consider now this further compound.
In: Specify the recorded IC50 for CC(C)(C)c1cc(-c2ccc[nH]c2=O)cc2c(-c3cccc(C(N)=O)c3)coc12 [Compound I-78] , system: HCV replicon cells (2209-23), genotype 1b replicon in human hepatoma Huh7 cells.
Out: 78

----------
Consider the following compounds and their measured IC50 readings.
# ASSAY TARGET: HCV polymerase (NS5B570n-Con1) (Hepatitis C virus genotype 1b, UniProt Q9WMX2)
# Construct: a 21 amino acid C-terminal deletion of full-length HCV polymerase
# EXPERIMENT SUMMARY: biochemical
# Procedure: The enzymatic activity of HCV polymerase (NS5B570n-Con1) was measured as the incorporation of radiolabeled nucleotide monophosphates into acid insoluble RNA products. […] The amount of light emitted from the scintillant was converted to counts per minute (CPM) on a Topcount® plate reader (Perkin-Elmer, Energy Range: Low, Efficiency Mode Normal, Count Time: 1 min, Background Subtract: none, Cross talk reduction: Off). Data was analyzed in Excel® (Microsoft®) and ActivityBase® (Idbs®). […]
Record the value in nM, omitting the unit from your answer.

Check out these entries, answers already filled in.
COMPOUND: CN(C[C@H]1CCN(C(=O)c2coc3c(C(C)(C)C)cc(-c4ccc[nH]c4=O)cc23)C1)S(C)(=O)=O
UNIT TAG: nM
IC50: 25
--
COMPOUND: CC(C)(C)c1cc(-c2ccc[nH]c2=O)cc2c(C(=O)N3CCC(O)(C(N)=O)CC3)coc12
UNIT TAG: nM
IC50: 97
--
COMPOUND: CC(C)CNC(=O)c1coc2c(C(C)(C)C)cc(-c3ccc[nH]c3=O)cc12
UNIT TAG: nM
IC50: 404

In: Output IC50 of CC(C)(C)c1cc(-c2ccc[nH]c2=O)cc2c(-c3ccc(N)nc3)coc12
Out: 47

In: Output IC50 of CN(CC1CCCN(C(=O)c2coc3c(C(C)(C)C)cc(-c4ccc[nH]c4=O)cc23)C1)S(C)(=O)=O (stereo not shown)
Out: 20

In: Output IC50 of COC(=O)[C@@H]1C[C@@H](O)CN1C(=O)c1coc2c(C(C)(C)C)cc(-c3ccc[nH]c3=O)cc12
Out: 1610

In: Output IC50 of CC(C)(C)c1cc(-c2ccc[nH]c2=O)cc2c(C(=O)N3CCC(O)C3)coc12 (stereo not shown)
Out: 126

In: Output IC50 of CCNC1(C(N)=O)CCN(C(=O)c2coc3c(C(C)(C)C)cc(-c4ccc[nH]c4=O)cc23)CC1
Out: 134

In: Output IC50 of CC(C)(C)c1cc(-c2ccc[nH]c2=O)cc2c(C(=O)N3CCOCC3)coc12
Out: 142

In: Output IC50 of CC(C)(C)c1cc(-c2ccc[nH]c2=O)cc2c(-c3ccccc3)coc12
Out: 19

In: Output IC50 of CCN(CCOC)C(=O)c1coc2c(C(C)(C)C)cc(-c3ccc[nH]c3=O)cc12
Out: 1330

----------
# ASSAY TARGET: HCV polymerase (NS5B570n-Con1) (Hepatitis C virus genotype 1b, UniProt Q9WMX2)
# Construct: a 21 amino acid C-terminal deletion of full-length HCV polymerase
# EXPERIMENT SUMMARY: biochemical
Consider the following compounds and their measured pIC50 readings.
Please note pIC50 is a logarithmic value: minus log10 of concentration in mol/L. Answer with that number alone.

COMPOUND: Cn1cc(C(N)=O)c2cc(-c3ccc[nH]c3=O)cc(C(C)(C)C)c21 [Compound I-112]
pIC50: 6.11

In: Output pIC50 of CC(C)CN(C)C(=O)c1coc2c(C(C)(C)C)cc(-c3ccc[nH]c3=O)cc12 [Compound I-11]
Out: 6.32

In: Output pIC50 of CC(C)(C)c1cc(-c2ccc[nH]c2=O)cc2c(C(=O)N3CCCC(CO)C3)coc12 (stereo not shown) [Compound I-14]
Out: 7.18

In: Output pIC50 of Cn1cc(C(=O)N2CC[C@H](CNS(C)(=O)=O)C2)c2cc(-c3ccc[nH]c3=O)cc(C(C)(C)C)c21 [Compound I-111]
Out: 8.10

----------
# ASSAY TARGET: HCV polymerase (NS5B570n-Con1) (Hepatitis C virus genotype 1b, UniProt Q9WMX2)
# Construct: a 21 amino acid C-terminal deletion of full-length HCV polymerase; made in house; host or cells: E. coli BL21(DE3) pLysS, plasmid pET17b
# EXPERIMENT SUMMARY: biochemical
# Design: species or system HCV Con1 strain
MEASURED ENDPOINT: pIC50
Please note pIC50 is a logarithmic value: minus log10 of concentration in mol/L. Answer with that number alone.

Check out these entries, answers already filled in.
COMPOUND: CC(C)(C)c1cc(-c2ccc[nH]c2=O)cc2c(-c3cccc(O)c3)coc12
pIC50: 7.62
--
COMPOUND: CC(C)(C)c1cc(-c2ccc[nH]c2=O)cc2c(CC(=O)O)coc12
pIC50: 6.45
--
COMPOUND: COc1cccc(C(=O)c2coc3c(C(C)(C)C)cc(-c4ccc[nH]c4=O)cc23)c1
pIC50: 6.48
--
COMPOUND: CC(C)(C)c1cc(-c2ccc[nH]c2=O)cc2c(-c3ccc(C(N)=O)cc3)coc12
pIC50: 8.70
--
COMPOUND: CC(C)(C)c1cc(-c2ccc[nH]c2=O)cc2c(C(=O)N3CCC(NC(=O)C(F)(F)F)C3)coc12 (centres unmarked)
pIC50: 7.29

In: Output pIC50 of CC(C)NC(=O)c1coc2c(C(C)(C)C)cc(-c3ccc[nH]c3=O)cc12
Out: 5.81

In: Output pIC50 of CC(C)(C)c1cc(-c2ccc[nH]c2=O)cc2c(C(=O)N3CCCC(CNS(C)(=O)=O)C3)coc12 (centres unmarked)
Out: 8.22

Data credit: patent US8067442B2
